# target-of-assay: T1, IL-18 receptor (IL-18Rαβ) on cells (UniProt Q13478 19-541; O95256 20-599, limits assumed)
# T1 sequence (looked up) 1: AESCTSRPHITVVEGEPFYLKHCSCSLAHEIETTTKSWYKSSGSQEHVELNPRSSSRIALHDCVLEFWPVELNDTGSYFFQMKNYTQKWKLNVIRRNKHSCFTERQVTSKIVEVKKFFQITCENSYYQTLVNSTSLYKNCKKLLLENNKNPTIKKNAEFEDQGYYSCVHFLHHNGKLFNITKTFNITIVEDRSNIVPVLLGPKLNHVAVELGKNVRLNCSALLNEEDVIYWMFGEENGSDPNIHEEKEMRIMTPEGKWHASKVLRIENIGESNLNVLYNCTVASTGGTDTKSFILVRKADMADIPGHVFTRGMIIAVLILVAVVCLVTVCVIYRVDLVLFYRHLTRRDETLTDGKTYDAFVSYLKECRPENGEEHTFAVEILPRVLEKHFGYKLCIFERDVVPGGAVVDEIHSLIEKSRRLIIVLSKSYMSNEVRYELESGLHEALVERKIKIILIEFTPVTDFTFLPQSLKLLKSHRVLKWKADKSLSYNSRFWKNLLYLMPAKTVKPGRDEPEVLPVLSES
# T1 sequence (looked up) 2: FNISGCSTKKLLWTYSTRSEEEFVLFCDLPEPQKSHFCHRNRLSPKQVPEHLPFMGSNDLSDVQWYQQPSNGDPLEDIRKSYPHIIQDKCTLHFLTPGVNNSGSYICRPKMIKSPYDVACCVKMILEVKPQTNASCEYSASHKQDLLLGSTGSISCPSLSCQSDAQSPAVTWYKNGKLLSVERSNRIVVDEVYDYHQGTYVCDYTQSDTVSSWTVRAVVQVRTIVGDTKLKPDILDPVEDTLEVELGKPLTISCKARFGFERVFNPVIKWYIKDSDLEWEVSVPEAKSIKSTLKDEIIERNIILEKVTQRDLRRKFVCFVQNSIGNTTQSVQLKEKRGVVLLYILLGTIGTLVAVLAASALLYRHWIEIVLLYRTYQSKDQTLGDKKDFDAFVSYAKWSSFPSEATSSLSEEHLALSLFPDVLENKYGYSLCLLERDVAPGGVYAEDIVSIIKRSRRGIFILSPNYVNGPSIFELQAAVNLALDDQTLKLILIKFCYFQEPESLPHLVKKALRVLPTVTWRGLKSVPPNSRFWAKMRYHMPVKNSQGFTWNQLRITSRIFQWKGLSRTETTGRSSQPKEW
# test-description: cell-based or functional assay
criterion met if EC50 (nM), IFNγ induction, NK-92 cells is below 0.06 nM. criterion not met if not; exact matches included in criterion not met.

| binder | classification |
| --- | --- |
| IL-18 polypeptide SEQ ID NO: 42 (E06K, K53A, S55A, T63A) (ligand) YFGKLKSKLSVIRNLNDQVLFIDQGNRPLFEDMTDSDCRDNAPRTIFIISMYADAQPRGMAVAISVKCEKISTLSCENKIISFKEMNPPDNIKDTKSDIIFFQRSVPGHDNKMQFESSSYEGYFLACEKERDLFKLILKKEDELGDRSIMFTVQNED | criterion not met |
| IL-18 polypeptide SEQ ID NO: 60 (E6K, C38Q, K53A) (ligand) YFGKLKSKLSVIRNLNDQVLFIDQGNRPLFEDMTDSDQRDNAPRTIFIISMYADSQPRGMAVTISVKCEKISTLSCENKIISFKEMNPPDNIKDTKSDIIFFQRSVPGHDNKMQFESSSYEGYFLACEKERDLFKLILKKEDELGDRSIMFTVQNED | criterion met |
| IL-18 polypeptide SEQ ID NO: 57 (E6K, C38S, K53A) (ligand) YFGKLKSKLSVIRNLNDQVLFIDQGNRPLFEDMTDSDSRDNAPRTIFIISMYADSQPRGMAVTISVKCEKISTLSCENKIISFKEMNPPDNIKDTKSDIIFFQRSVPGHDNKMQFESSSYEGYFLACEKERDLFKLILKKEDELGDRSIMFTVQNED | criterion not met |
| C163 (V11I, C38A, C76A, Q103K, C127A) (ligand) YFGKLESKLSIIRNLNDQVLFIDQGNRPLFEDMTDSDARDNAPRTIFIISMYKDSQPRGMAVTISVKCEKISTLSAENKIISFKEMNPPDNIKDTKSDIIFFKRSVPGHDNKMQFESSSYEGYFLAAEKERDLFKLILKKEDELGDRSIMFTVQNED | criterion not met |
| IL-18 polypeptide SEQ ID NO: 54 (E06K, K53A, C38S, C68S, C76S, C127S, K70C) (ligand) YFGKLKSKLSVIRNLNDQVLFIDQGNRPLFEDMTDSDSRDNAPRTIFIISMYADSQPRGMAVTISVKSECISTLSSENKIISFKEMNPPDNIKDTKSDIIFFQRSVPGHDNKMQFESSSYEGYFLASEKERDLFKLILKKEDELGDRSIMFTVQNED | criterion not met |
| C158 (V11I, C38A, K53A, C76A, G108A, C127A) (ligand) YFGKLESKLSIIRNLNDQVLFIDQGNRPLFEDMTDSDARDNAPRTIFIISMYADSQPRGMAVTISVKCEKISTLSAENKIISFKEMNPPDNIKDTKSDIIFFQRSVPAHDNKMQFESSSYEGYFLAAEKERDLFKLILKKEDELGDRSIMFTVQNED | criterion not met |
| C151 (V11I, D35A, C38A, K53A, C76A, C127A) (ligand) YFGKLESKLSIIRNLNDQVLFIDQGNRPLFEDMTASDARDNAPRTIFIISMYADSQPRGMAVTISVKCEKISTLSAENKIISFKEMNPPDNIKDTKSDIIFFQRSVPGHDNKMQFESSSYEGYFLAAEKERDLFKLILKKEDELGDRSIMFTVQNED | criterion met |
| IL-18 polypeptide SEQ ID NO: 6 (E6K, V11I, C38A, K53A, T63A, C68A, C76A, D98C, C127A) (ligand) YFGKLKSKLSIIRNLNDQVLFIDQGNRPLFEDMTDSDARDNAPRTIFIISMYADSQPRGMAVAISVKAEKISTLSAENKIISFKEMNPPDNIKDTKSCIIFFQRSVPGHDNKMQFESSSYEGYFLAAEKERDLFKLILKKEDELGDRSIMFTVQNED | criterion not met |
| IL-18 polypeptide SEQ ID NO: 59 (E6K, C38A, K53A) (ligand) YFGKLKSKLSVIRNLNDQVLFIDQGNRPLFEDMTDSDARDNAPRTIFIISMYADSQPRGMAVTISVKCEKISTLSCENKIISFKEMNPPDNIKDTKSDIIFFQRSVPGHDNKMQFESSSYEGYFLACEKERDLFKLILKKEDELGDRSIMFTVQNED | criterion met |
| C143 (V11I, C38A, K53A, C76A, C127A) (ligand) YFGKLESKLSIIRNLNDQVLFIDQGNRPLFEDMTDSDARDNAPRTIFIISMYADSQPRGMAVTISVKCEKISTLSAENKIISFKEMNPPDNIKDTKSDIIFFQRSVPGHDNKMQFESSSYEGYFLAAEKERDLFKLILKKEDELGDRSIMFTVQNED | criterion met |
| C160 (V11I, C38A, K53A, C76A, D110A, C127A) (ligand) YFGKLESKLSIIRNLNDQVLFIDQGNRPLFEDMTDSDARDNAPRTIFIISMYADSQPRGMAVTISVKCEKISTLSAENKIISFKEMNPPDNIKDTKSDIIFFQRSVPGHANKMQFESSSYEGYFLAAEKERDLFKLILKKEDELGDRSIMFTVQNED | criterion met |
| C146 (SEQ ID NO: 79; V11I, C38A, M51G, K53A, C76A, C127A) (ligand) YFGKLESKLSIIRNLNDQVLFIDQGNRPLFEDMTDSDARDNAPRTIFIISGYADSQPRGMAVTISVKCEKISTLSAENKIISFKEMNPPDNIKDTKSDIIFFQRSVPGHDNKMQFESSSYEGYFLAAEKERDLFKLILKKEDELGDRSIMFTVQNED | criterion not met |
